# tgt: Bromodomain adjacent to zinc finger domain protein 2B (Homo sapiens) (UniProt Q9UIF8)
# Sequence (Q9UIF8 whole entry, looked up, the tested form may be a part): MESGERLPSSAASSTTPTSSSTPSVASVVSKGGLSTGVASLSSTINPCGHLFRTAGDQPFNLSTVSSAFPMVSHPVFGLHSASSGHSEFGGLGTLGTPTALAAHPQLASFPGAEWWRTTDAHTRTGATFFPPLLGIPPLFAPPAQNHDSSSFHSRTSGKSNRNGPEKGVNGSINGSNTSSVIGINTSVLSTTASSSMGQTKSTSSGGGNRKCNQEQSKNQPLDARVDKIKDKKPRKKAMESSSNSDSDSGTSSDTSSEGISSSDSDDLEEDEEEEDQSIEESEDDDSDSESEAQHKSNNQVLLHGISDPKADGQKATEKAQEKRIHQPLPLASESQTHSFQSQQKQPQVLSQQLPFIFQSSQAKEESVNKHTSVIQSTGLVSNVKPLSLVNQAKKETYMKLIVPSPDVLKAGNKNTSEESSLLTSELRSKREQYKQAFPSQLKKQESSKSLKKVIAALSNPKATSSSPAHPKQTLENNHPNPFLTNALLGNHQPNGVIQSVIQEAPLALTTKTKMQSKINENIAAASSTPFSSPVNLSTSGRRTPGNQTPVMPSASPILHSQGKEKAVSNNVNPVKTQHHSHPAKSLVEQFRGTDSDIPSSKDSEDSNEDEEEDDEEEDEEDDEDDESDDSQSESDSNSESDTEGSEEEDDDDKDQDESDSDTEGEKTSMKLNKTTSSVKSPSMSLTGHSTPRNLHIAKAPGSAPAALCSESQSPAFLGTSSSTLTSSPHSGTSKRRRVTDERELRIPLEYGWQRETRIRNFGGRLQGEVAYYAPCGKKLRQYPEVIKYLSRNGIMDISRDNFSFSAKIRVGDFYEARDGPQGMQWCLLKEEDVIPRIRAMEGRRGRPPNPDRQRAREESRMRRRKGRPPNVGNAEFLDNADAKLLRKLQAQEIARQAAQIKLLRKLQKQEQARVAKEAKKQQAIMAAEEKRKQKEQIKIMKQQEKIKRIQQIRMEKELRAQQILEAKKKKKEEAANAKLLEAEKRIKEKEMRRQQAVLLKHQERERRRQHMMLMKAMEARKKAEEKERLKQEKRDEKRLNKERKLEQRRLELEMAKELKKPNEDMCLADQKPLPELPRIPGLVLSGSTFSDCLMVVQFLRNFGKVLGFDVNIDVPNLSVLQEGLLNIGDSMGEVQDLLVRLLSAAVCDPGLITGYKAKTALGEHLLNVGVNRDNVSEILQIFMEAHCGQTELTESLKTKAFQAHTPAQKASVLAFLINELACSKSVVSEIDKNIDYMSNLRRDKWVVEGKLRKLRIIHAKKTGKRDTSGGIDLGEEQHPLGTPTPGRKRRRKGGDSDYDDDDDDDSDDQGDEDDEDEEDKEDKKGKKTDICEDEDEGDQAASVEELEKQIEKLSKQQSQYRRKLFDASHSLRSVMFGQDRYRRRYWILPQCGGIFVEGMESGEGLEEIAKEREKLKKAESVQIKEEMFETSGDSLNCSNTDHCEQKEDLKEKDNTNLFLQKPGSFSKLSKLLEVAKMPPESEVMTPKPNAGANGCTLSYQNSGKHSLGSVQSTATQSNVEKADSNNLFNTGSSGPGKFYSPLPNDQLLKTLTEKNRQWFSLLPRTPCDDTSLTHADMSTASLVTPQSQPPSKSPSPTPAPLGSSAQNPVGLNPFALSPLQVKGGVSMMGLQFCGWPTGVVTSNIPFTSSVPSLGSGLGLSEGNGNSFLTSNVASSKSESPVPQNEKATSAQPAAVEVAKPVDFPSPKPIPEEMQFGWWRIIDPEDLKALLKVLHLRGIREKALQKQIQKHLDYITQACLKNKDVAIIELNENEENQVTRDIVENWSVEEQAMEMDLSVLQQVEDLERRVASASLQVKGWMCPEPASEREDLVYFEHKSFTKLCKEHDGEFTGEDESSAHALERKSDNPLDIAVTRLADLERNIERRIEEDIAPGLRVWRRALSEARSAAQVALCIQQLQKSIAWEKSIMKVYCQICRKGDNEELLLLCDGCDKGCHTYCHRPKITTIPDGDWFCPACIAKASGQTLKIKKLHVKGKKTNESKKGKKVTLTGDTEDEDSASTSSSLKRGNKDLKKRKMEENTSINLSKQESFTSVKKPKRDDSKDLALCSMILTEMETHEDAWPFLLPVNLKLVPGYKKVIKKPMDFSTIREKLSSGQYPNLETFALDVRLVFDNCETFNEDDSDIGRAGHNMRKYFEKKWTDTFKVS
# protocol details: qHTS Assay for Inhibitors of BAZ2B; further: nearly all actives have a fitted effect of over 60% in size; further: potency means the concentration at half of the fitted maximal effect
# conditions used: AlphaScreen BAZ2B-H3K14Ac peptide displacement; series mostly up to 114 µM
The whole screen tested about 360,000 compounds, of which about 16,000 (4.4%) were called active. Another 9% or so got no clear call; they are omitted. For the sample, actives were picked, then their nearest neighbours and some compounds at random.
quantity measured: Potency

compound	tgt	result
Cc1cccc(N2CCN(C(=O)c3cnc(N4CCCC4)nc3C)CC2)c1C	Bromodomain adjacent to zinc finger domain protein 2B (Homo sapiens) (UniProt Q9UIF8)	inactive
CCc1ccc(CNC(=O)C2CCN(c3nn4cc(-c5ccc(F)cc5)nc4s3)CC2)cc1	Bromodomain adjacent to zinc finger domain protein 2B (Homo sapiens) (UniProt Q9UIF8)	inactive
Cc1nnc(C)n1-c1ccc(C(=O)Nc2cccc(Br)c2)cc1	Bromodomain adjacent to zinc finger domain protein 2B (Homo sapiens) (UniProt Q9UIF8)	inactive
Cc1cccc(N2CCN(C(=O)/C=C/c3ccco3)CC2)c1C	Bromodomain adjacent to zinc finger domain protein 2B (Homo sapiens) (UniProt Q9UIF8)	50.1 µM (active)
COc1cccc(NC(=O)Nc2ccc3c(c2)N(C)C(=O)c2ccccc2S3)c1	Bromodomain adjacent to zinc finger domain protein 2B (Homo sapiens) (UniProt Q9UIF8)	inactive
Cc1ccc(N=C2NC(=O)/C(=C/C=C/c3ccco3)S2)cc1C	Bromodomain adjacent to zinc finger domain protein 2B (Homo sapiens) (UniProt Q9UIF8)	44.7 µM (active)
CC1CCCC(C)N1C(=O)CN1CCN(c2nc(-c3ccc(F)cc3)cs2)CC1 (stereo unspecified)	Bromodomain adjacent to zinc finger domain protein 2B (Homo sapiens) (UniProt Q9UIF8)	70.8 µM (active)
COCCCNC(=O)c1ccc(NC(=O)c2nsc3ccccc23)cc1	Bromodomain adjacent to zinc finger domain protein 2B (Homo sapiens) (UniProt Q9UIF8)	inactive
CCCCN1C(=O)c2[nH]nc(-c3ccccc3O)c2C1c1cccc(OCc2ccccc2)c1 (stereo unspecified)	Bromodomain adjacent to zinc finger domain protein 2B (Homo sapiens) (UniProt Q9UIF8)	inactive
Cc1nn(-c2ccc(N3CCCCC3)nn2)c(C)c1CCC(=O)NCc1ccc(F)cc1	Bromodomain adjacent to zinc finger domain protein 2B (Homo sapiens) (UniProt Q9UIF8)	79.4 µM (active)
CCOc1ccc(CNC(=O)CCc2c(C)nn(-c3ccc(N4CCCCC4)nn3)c2C)cc1	Bromodomain adjacent to zinc finger domain protein 2B (Homo sapiens) (UniProt Q9UIF8)	inactive
O=C(NCCc1csc(-c2ccc(C(F)(F)F)cc2)n1)C(=O)Nc1ccc(F)c(Cl)c1	Bromodomain adjacent to zinc finger domain protein 2B (Homo sapiens) (UniProt Q9UIF8)	inactive
CCc1cccc(NC(=O)CSc2nccn2C)c1	Bromodomain adjacent to zinc finger domain protein 2B (Homo sapiens) (UniProt Q9UIF8)	inactive
COc1ccc(CCNC(=O)CCc2ccccc2O)cc1OC	Bromodomain adjacent to zinc finger domain protein 2B (Homo sapiens) (UniProt Q9UIF8)	inactive
Cc1ccc(S(=O)(=O)c2cn(Cc3ccccc3)c3cc(N4CCCC4)c(F)cc3c2=O)c(C)c1	Bromodomain adjacent to zinc finger domain protein 2B (Homo sapiens) (UniProt Q9UIF8)	inactive
CCC(C(=O)Nc1cc(OC)ccc1OC)n1c(=O)c(C(F)(F)F)nc2ccccc21 (stereo unspecified)	Bromodomain adjacent to zinc finger domain protein 2B (Homo sapiens) (UniProt Q9UIF8)	inactive
O=S(=O)(c1ccc(C2CCCCC2)cc1)N1CCN(c2ccc(Cl)c(Cl)c2)CC1	Bromodomain adjacent to zinc finger domain protein 2B (Homo sapiens) (UniProt Q9UIF8)	inactive
Cc1ccc(CNC(=O)CCc2c(C)nc3c(c(C)nn3-c3ccccc3)c2C)cc1	Bromodomain adjacent to zinc finger domain protein 2B (Homo sapiens) (UniProt Q9UIF8)	inactive
COc1cccc(NC(=O)CN2CCN(c3nc(-c4cccc(OC)c4)cs3)CC2)c1	Bromodomain adjacent to zinc finger domain protein 2B (Homo sapiens) (UniProt Q9UIF8)	inactive
CCC(CC)C(=O)N1CCN(c2cccc(C)c2C)CC1	Bromodomain adjacent to zinc finger domain protein 2B (Homo sapiens) (UniProt Q9UIF8)	inactive
COc1ccc(CCNC(=O)Cc2ccc(C)cc2)cc1OC	Bromodomain adjacent to zinc finger domain protein 2B (Homo sapiens) (UniProt Q9UIF8)	79.4 µM (active)

The values you see were collected from PubChem BioAssay AID504333.
